- System: 935938-334-R-J1-PDC complex spheroid viability
- experimentDescription: Anticancer human tumor 935938-334-R-J1-PDC patient-derived small intestine adenocarcinoma cell line growth inhibition [POLQ]; active = viability on the fitted dose curve at most 10% of control; inactive = the rest
- setupConditions: second compound 3.16 µM; first compound 1 µM
Reply using exactly one outcome from active, inactive

# example entries with known answers
>>> assignedcategory("COc1ccc([C@@H](O)c2cc(-c3ncnc4cc(N5CCOCC5)ccc34)c(F)cc2Cl)nn1 + Cc1cccc(N(C)C(=O)C2C(O)CCN2c2nc(C)cc(C(F)(F)F)c2C#N)c1")
"inactive"
>>> assignedcategory("C=CC(=O)N1CCN(c2nc(=O)n(-c3c(C)ccnc3C(C)C)c3nc(-c4c(O)cccc4F)c(F)cc23)C(C)C1 (stereo not given) + Nc1ccc(C#CCN(C(=O)Cc2ncc(C(F)(F)F)cc2C(F)(F)F)c2ccc(F)cc2)nn1")
"inactive"
>>> assignedcategory("CCc1cc2c(N3CCc4c(cc(Cn5ccnc5)cc4-c4cn(C)nc4C(F)(F)F)C3=O)ccnc2c(OC)n1 + Nc1ccc(C#CCN(C(=O)Cc2ncc(C(F)(F)F)cc2C(F)(F)F)c2ccc(F)cc2)nn1")
"inactive"

Ask | Hey, what did the test say about C#Cc1c(F)ccc2cc(O)cc(-c3ncc4c(N5CC6CCC(C5)N6)nc(OCC56CCCN5CC(F)C6)nc4c3F)c12 (stereo not given) + Nc1ccc(C#CCN(C(=O)Cc2ncc(C(F)(F)F)cc2C(F)(F)F)c2ccc(F)cc2)nn1 ?
Reply | inactive

Ask | Param item: C=CCn1c(=O)c2cnc(Nc3ccc(N4CCN(C)CC4)cc3)nc2n1-c1cccc(C(C)(C)O)n1 + COC1C(OC(N)=O)C(O)C(Oc2ccc3c(O)c(NC(=O)c4ccc(O)c(CC=C(C)C)c4)c(=O)oc3c2C)OC1(C)C
Reply | inactive

Ask | Same question, CC1COCCN1c1cc(C2(O)CC3CCC(C2)O3)c2cnn(-c3ccn[nH]3)c2n1 (stereo not given) + Cc1cccc(N(C)C(=O)C2C(O)CCN2c2nc(C)cc(C(F)(F)F)c2C#N)c1 this time
Reply | inactive

Ask | Next entry: COc1cc2cc(C(=O)CCC(=O)O)sc2cc1OC + COC1C(OC(N)=O)C(O)C(Oc2ccc3c(O)c(NC(=O)c4ccc(O)c(CC=C(C)C)c4)c(=O)oc3c2C)OC1(C)C
Reply | inactive

Ask | Check O=C(Nc1ccc(O)c(NS(=O)(=O)c2ccc(F)cc2)c1)c1ccc(-c2ccccc2)cc1 + Nc1ccc(C#CCN(C(=O)Cc2ncc(C(F)(F)F)cc2C(F)(F)F)c2ccc(F)cc2)nn1 too.
Reply | inactive

Ask | Follow-up item: CC(C)n1c(=O)n(C)c2cnc3cc(F)c(-c4ccc(OCCCN5CCCCC5)nc4)cc3c21 + COC1C(OC(N)=O)C(O)C(Oc2ccc3c(O)c(NC(=O)c4ccc(O)c(CC=C(C)C)c4)c(=O)oc3c2C)OC1(C)C
Reply | inactive

----------
List of viability, T/C values.
- System: 935938-334-R-J1-PDC complex spheroid viability
- experimentDescription: Anticancer human tumor 935938-334-R-J1-PDC cell line growth inhibition [POLQ];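 also: spheroids exposed to drugs for seven days before viability read; 100% = DMSO vehicle control wells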
- setupConditions: second compound 1 µM; first compound 0.0316 µM; active compounds read low
Kindly provide the numeric value in % only, without the unit symbol.

Previously resolved entries follow.
>>> observedvalue("C#Cc1c(F)ccc2cc(O)cc(-c3ncc4c(N5CC6CCC(C5)N6)nc(OCC56CCCN5CC(F)C6)nc4c3F)c12 (centres undefined) + COC1C(OC(N)=O)C(O)C(Oc2ccc3c(O)c(NC(=O)c4ccc(O)c(CC=C(C)C)c4)c(=O)oc3c2C)OC1(C)C")
92.8
>>> observedvalue("Nc1ccn(C2OC(CO)C(O)C2(F)F)c(=O)n1 (centres undefined) + Nc1ccc(C#CCN(C(=O)Cc2ncc(C(F)(F)F)cc2C(F)(F)F)c2ccc(F)cc2)nn1")
33.2
>>> observedvalue("Cn1ncnc1[C@H]1c2n[nH]c(=O)c3cc(F)cc(c23)N[C@@H]1c1ccc(F)cc1 + Nc1ccc(C#CCN(C(=O)Cc2ncc(C(F)(F)F)cc2C(F)(F)F)c2ccc(F)cc2)nn1")
96.6

API: the following record is the query input.
Ask | # input compound: CCCS(=O)(=O)Nc1ccc(F)c(C(=O)c2c[nH]c3ncc(-c4ccc(Cl)cc4)cc23)c1F + Cc1cccc(N(C)C(=O)C2C(O)CCN2c2nc(C)cc(C(F)(F)F)c2C#N)c1 ; wanted: its viability, T/C
Reply | 95.7

----------
As shown below, each of these compounds has a reported viability, T/C value.
- System: 935938-334-R-J1-PDC complex spheroid viability
- experimentDescription: Anticancer human tumor 935938-334-R-J1-PDC cell line growth inhibition [POLQ];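 also: spheroids exposed to drugs for seven days before viability read; 100% = DMSO vehicle control wells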
- setupConditions: second compound 0.0316 µM; first compound 10 µM; active compounds read low

>>> observedvalue("COc1cc2cc(C(=O)CCC(=O)O)sc2cc1OC + Cc1cccc(N(C)C(=O)C2C(O)CCN2c2nc(C)cc(C(F)(F)F)c2C#N)c1")
"80.8%"
>>> observedvalue("O=C(c1cc(Cc2n[nH]c(=O)c3ccccc23)ccc1F)N1CCN(C(=O)C2CC2)CC1 + Cc1cccc(N(C)C(=O)C2C(O)CCN2c2nc(C)cc(C(F)(F)F)c2C#N)c1")
"65.8%"
>>> observedvalue("COc1cc2cc(C(=O)CCC(=O)O)sc2cc1OC + Nc1ccc(C#CCN(C(=O)Cc2ncc(C(F)(F)F)cc2C(F)(F)F)c2ccc(F)cc2)nn1")
"84.5%"

Ask | Quick check: viability, T/C of O=C(c1cc(Cc2n[nH]c(=O)c3ccccc23)ccc1F)N1CCN(C(=O)C2CC2)CC1 + Nc1ccc(C#CCN(C(=O)Cc2ncc(C(F)(F)F)cc2C(F)(F)F)c2ccc(F)cc2)nn1 ?
Reply | 76.3%

Ask | Please answer likewise for O=c1[nH]cc(F)c(=O)[nH]1 + COC1C(OC(N)=O)C(O)C(Oc2ccc3c(O)c(NC(=O)c4ccc(O)c(CC=C(C)C)c4)c(=O)oc3c2C)OC1(C)C
Reply | 57%

Ask | Queued: CNCc1ccc(-c2[nH]c3cc(F)cc4c3c2CCNC4=O)cc1 + Cc1cccc(N(C)C(=O)C2C(O)CCN2c2nc(C)cc(C(F)(F)F)c2C#N)c1
Reply | 81.8%

----------
- Test system: 935938-334-R-J1-PDC complex spheroid viability
- experimentDescription: Anticancer human tumor 935938-334-R-J1-PDC cell line growth inhibition [POLQ];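 also: spheroids exposed to drugs for seven days before viability read; 100% = DMSO vehicle control wells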
- setupConditions: second compound 1 µM; first compound 0.1 µM; active compounds read low
Reported viability, T/C values follow for various compounds
Reply numerically in %, unit not repeated.

Guide cases for viability, T/C, answers given:
>>> observedvalue("CCc1cc2c(N3CCc4c(cc(Cn5ccnc5)cc4-c4cn(C)nc4C(F)(F)F)C3=O)cc(C)nc2c(OC)n1 + Nc1ccc(C#CCN(C(=O)Cc2ncc(C(F)(F)F)cc2C(F)(F)F)c2ccc(F)cc2)nn1")
60.6
>>> observedvalue("Nc1ccn(C2OC(CO)C(O)C2(F)F)c(=O)n1 (stereo not drawn) + COC1C(OC(N)=O)C(O)C(Oc2ccc3c(O)c(NC(=O)c4ccc(O)c(CC=C(C)C)c4)c(=O)oc3c2C)OC1(C)C")
23.4

Ask | So what's the measured viability, T/C for this one? Cn1ncnc1[C@H]1c2n[nH]c(=O)c3cc(F)cc(c23)N[C@@H]1c1ccc(F)cc1 + Cc1cccc(N(C)C(=O)C2C(O)CCN2c2nc(C)cc(C(F)(F)F)c2C#N)c1
Reply | 60.4

----------
- System: 935938-334-R-J1-PDC complex spheroid viability
- experimentDescription: Anticancer human tumor 935938-334-R-J1-PDC cell line growth inhibition [POLQ];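 also: spheroids exposed to drugs for seven days before viability read; 100% = DMSO vehicle control wells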
- setupConditions: second compound 0.0316 µM; first compound 0.01 µM; active compounds read low
# Criterion met = viability, T/C below 90% (exclusive); Criterion not met = viability, T/C at/above 90%

Consider the worked cases shown below.
>>> assignedcategory("CCc1c2c(nc3ccc(O)cc13)-c1cc3c(c(=O)n1C2)COC(=O)[C@]3(O)CC + Nc1ccc(C#CCN(C(=O)Cc2ncc(C(F)(F)F)cc2C(F)(F)F)c2ccc(F)cc2)nn1")
"Criterion met"
>>> assignedcategory("C=CCn1c(=O)c2cnc(Nc3ccc(N4CCN(C)CC4)cc3)nc2n1-c1cccc(C(C)(C)O)n1 + Nc1ccc(C#CCN(C(=O)Cc2ncc(C(F)(F)F)cc2C(F)(F)F)c2ccc(F)cc2)nn1")
"Criterion not met"

Ask | Problem: For the compound Cn1ncnc1[C@H]1c2n[nH]c(=O)c3cc(F)cc(c23)N[C@@H]1c1ccc(F)cc1 + Cc1cccc(N(C)C(=O)C2C(O)CCN2c2nc(C)cc(C(F)(F)F)c2C#N)c1 , is viability, T/C under 90%?
Reply | Criterion not met

Ask | // next record COc1cccc(OCCCN)c1-c1cc(Nc2cnc(C#N)cn2)n[nH]1 + Cc1cccc(N(C)C(=O)C2C(O)CCN2c2nc(C)cc(C(F)(F)F)c2C#N)c1
Reply | Criterion not met

Source of measurements: PubChem BioAssay AID1963829
